Documented melting point across a set of compounds

{"compound": "COc1ccc(/C=N/NC(=O)CN2C(=O)Cc3cc(F)ccc32)c(O)c1 [Compound 4o]", "melting point": "186 to 187 °C"}
{"compound": "O=C(CN1C(=O)Cc2cc(F)ccc21)N/N=C/c1ccc(Cl)cc1 [Compound 4l]", "melting point": "191 to 192 °C"}
{"compound": "COc1ccc(/C=N/NC(=O)CN2C(=O)Cc3cc(F)ccc32)cc1 [Compound 4m]", "melting point": "175 to 176 °C"}
{"compound": "O=C(CN1C(=O)Cc2cc(F)ccc21)N/N=C/c1cccc(Cl)c1 [Compound 4k]", "melting point": "187 to 188 °C"}
{"compound": "COc1ccc(/C=N/NC(=O)CN2C(=O)Cc3ccccc32)cc1 [Compound 4e]", "melting point": "168 to 169 °C"}
{"compound": "O=C(CN1C(=O)Cc2cc(F)ccc21)N/N=C/c1ccccc1O [Compound 4n]", "melting point": "173 to 174 °C"}
{"compound": "O=C(CN1C(=O)Cc2ccccc21)N/N=C/c1ccc(Cl)cc1 [Compound 4d]", "melting point": "185 to 187 °C"}
{"compound": "COc1ccc(/C=N/NC(=O)CN2C(=O)Cc3ccccc32)c(O)c1 [Compound 4g]", "melting point": "177 to 178 °C"}
{"compound": "C=CCc1cccc(/C=N/NC(=O)CN2C(=O)Cc3ccccc32)c1O [Compound 4h]", "melting point": "185 to 186 °C"}

###

Experiment: Cytotoxicity on normal mesenchymal stem cells
Type: cell-based
Settings: human bone marrow-derived mesenchymal stem cells; mean ± SEM; read-out: Cytotoxicity (IC50) MSCs
pIC50: −log10 of the molar value.
measurement_label: pIC50

{"smiles_text": "COc1ccc(/C=N/NC(=O)CN2C(=O)Cc3ccccc32)cc1", "measurement_label": "pIC50", "endpoint_result": "< 4.52"}
{"smiles_text": "O=C(CN1C(=O)Cc2ccccc21)N/N=C/c1ccc(Cl)cc1", "measurement_label": "pIC50", "endpoint_result": "< 4.52"}
{"smiles_text": "COc1ccc(/C=N/NC(=O)CN2C(=O)Cc3cc(F)ccc32)cc1", "measurement_label": "pIC50", "endpoint_result": "< 4.52"}
